# assayed-system: fibrinogen (Homo sapiens, UniProt P02671+P02675+P02679)
# Sequence (P02671 20-629 limits assumed): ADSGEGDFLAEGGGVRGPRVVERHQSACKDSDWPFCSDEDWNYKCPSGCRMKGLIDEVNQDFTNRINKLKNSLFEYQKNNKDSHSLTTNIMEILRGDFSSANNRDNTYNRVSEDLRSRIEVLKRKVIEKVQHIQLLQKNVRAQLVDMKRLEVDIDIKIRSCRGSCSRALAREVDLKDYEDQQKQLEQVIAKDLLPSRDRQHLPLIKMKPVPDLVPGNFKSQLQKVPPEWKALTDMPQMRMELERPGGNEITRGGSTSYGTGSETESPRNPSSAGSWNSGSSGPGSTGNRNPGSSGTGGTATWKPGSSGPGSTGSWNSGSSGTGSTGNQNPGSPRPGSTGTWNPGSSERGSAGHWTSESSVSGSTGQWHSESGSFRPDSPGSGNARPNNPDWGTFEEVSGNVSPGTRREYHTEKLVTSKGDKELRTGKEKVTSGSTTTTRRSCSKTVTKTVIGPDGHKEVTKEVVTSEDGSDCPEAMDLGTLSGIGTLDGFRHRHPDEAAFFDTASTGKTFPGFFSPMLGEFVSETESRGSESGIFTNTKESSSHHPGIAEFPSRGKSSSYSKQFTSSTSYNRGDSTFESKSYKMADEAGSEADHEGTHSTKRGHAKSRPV
# Sequence (P02675 31-491): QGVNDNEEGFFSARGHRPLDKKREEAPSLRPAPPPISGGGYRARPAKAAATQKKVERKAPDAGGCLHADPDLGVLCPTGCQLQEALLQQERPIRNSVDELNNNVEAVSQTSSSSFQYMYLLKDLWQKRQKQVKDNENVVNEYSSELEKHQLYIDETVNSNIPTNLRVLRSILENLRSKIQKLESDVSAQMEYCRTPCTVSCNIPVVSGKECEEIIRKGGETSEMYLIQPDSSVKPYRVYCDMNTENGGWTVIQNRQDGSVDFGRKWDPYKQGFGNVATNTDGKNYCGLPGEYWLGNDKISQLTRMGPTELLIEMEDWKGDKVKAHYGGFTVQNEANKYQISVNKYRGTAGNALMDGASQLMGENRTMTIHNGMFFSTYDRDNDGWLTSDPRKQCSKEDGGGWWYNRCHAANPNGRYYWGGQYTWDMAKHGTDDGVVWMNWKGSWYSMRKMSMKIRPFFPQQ
# Sequence (P02679 27-433 limits assumed): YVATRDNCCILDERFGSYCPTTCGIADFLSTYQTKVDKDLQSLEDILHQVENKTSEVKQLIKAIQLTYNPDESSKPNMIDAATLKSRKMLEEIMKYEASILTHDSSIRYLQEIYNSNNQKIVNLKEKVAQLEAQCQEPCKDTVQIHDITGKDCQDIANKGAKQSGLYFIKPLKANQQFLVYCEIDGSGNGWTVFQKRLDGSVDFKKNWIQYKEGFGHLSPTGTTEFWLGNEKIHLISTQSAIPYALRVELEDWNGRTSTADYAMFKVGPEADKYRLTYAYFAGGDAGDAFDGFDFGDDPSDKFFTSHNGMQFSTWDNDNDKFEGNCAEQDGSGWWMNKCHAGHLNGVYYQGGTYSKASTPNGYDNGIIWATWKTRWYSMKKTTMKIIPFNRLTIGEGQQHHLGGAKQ
# experiment-notes: Fibrinogen binding assay by ELISA
# condition: plate coated with 1 mg/ml fibrinogen, various concentrations, anti-His6-peroxidase detection
Ends that are not written are not given here.
result-type: binding affinity to fibrinogen

>  <record-sequence>
EDGRLLASKCVTDECFFFERLESNNYNTYRSRHHHHH (EDGRLLASKCVTDECFFFERLESNNYNTYRSRHHHHH; synthetic peptide pep 3 (37 aa), peptide #3, pep3 with C-terminus 5x HIS-tag) [also expressed recombinantly]

>  <result-value>
high affinity

$$$$
>  <record-sequence>
GVCANRYLAMKEDGRLLASKCVTDECFFFERLESNNYNTYRSR (GVCANRYLAMKEDGRLLASKCVTDECFFFERLESNNYNTYRSR; not fully specified (C-terminus); cysteine pairing not given here) [pep2, recombinant truncated hFGF-2 peptide (48 aa) with C-terminal 6x HIS-tag, ~5.2 kD]

>  <result-value>
high affinity

$$$$
>  <record-sequence>
EERGVVSIKGVCANRYLAMKEDGRLLASKCVTDECFFFERLESNNYNTYRSR (EERGVVSIKGVCANRYLAMKEDGRLLASKCVTDECFFFERLESNNYNTYRSR; not fully specified (C-terminus); cysteine pairing not given here) [pep1, recombinant truncated hFGF-2 peptide (68 aa) with C-terminal 6x HIS-tag, expressed as GST fusion in E. coli and cleaved]

>  <result-value>
high affinity

$$$$
